- experimental system: IAPP fibrils (Homo sapiens, UniProt P10997)
- Construct: purchased Bachem Inc
- Sequence (P10997 34-70 limits assumed): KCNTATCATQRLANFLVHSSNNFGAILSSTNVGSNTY
- assay procedure: Thioflavin T fluorometry - disruption of type 2 diabetes IAPP fibrils
- Type: biochemical
- run parameters: IAPP:test compound wt/wt ratio 1:0.01; 25 μM pre-fibrillized IAPP, 37° C., 3 days; read-out: % Inhibition IAPP (result ± S.D.)
Provide the reported inhibition of each item.
Answers are plain numbers, in %.

O=C(c1ccc(O)c(O)c1)N1CCN(C(=O)c2ccc(O)c(O)c2)CC1 [Compound 23, 1,4-bis(3,4-dihydroxybenzoyl)piperazine]
44.3

Report inhibition for every entry below.
1. Oc1ccc(CCc2ccc(O)c(O)c2)cc1O [Compound 4, 1,2-bis(3,4-dihydroxyphenyl)ethane]
2. Oc1ccc(CN[C@@H]2CCCC[C@H]2NCc2ccc(O)c(O)c2)cc1O (relative stereo) [Compound 12]
3. O=C(NCCc1ccc(O)c(O)c1)Nc1ccc(O)c(O)c1 [Compound 78]

[A]
1. 63.2
2. 37.5
3. 58.3

Values from patent US20070276034A1
